Kindly find below pKi information for the protein given by its sequence taken from the literature.
Target sequence: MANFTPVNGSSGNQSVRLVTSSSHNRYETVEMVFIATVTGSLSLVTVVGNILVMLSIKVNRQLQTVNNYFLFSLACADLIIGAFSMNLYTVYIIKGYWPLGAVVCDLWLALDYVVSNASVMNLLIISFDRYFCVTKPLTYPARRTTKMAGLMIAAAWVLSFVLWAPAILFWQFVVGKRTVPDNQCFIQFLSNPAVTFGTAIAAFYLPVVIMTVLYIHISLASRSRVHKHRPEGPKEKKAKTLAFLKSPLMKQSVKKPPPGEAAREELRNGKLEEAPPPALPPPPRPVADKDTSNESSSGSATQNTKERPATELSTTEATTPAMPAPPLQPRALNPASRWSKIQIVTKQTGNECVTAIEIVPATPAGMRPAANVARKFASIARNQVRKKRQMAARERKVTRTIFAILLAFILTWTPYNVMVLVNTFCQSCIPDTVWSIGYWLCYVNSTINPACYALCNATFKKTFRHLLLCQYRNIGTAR
pKi: −log10 of the molar value.
Measurement kind: pKi

[a] OC(CCCN1CCC(C2CCN(CCCC(O)(c3ccccc3)c3ccccc3)CC2)CC1)(c1ccccc1)c1ccccc1
[b] CN1CCC[C@@H]1[C@@H]1C[S+]([O-])[C@@](c2ccccc2)(C2CCCCC2)O1 (stereo in doubt; (+)-9)
[c] O=C(NCCC1CCNCC1)[C@H]1CCCN1C(=O)[C@@H]1C[C@@H](O)CN1C(=O)CC(c1ccccc1)(c1ccccc1)c1ccccc1
For the molecules shown above, give the order from largest pKi to smallest. Output spec: labels arranged per the requested ranking.
a, c, b
(a: 7.13, c: 6.82, b: 6.59)

###

Kindly find below pKi information for Muscarinic acetylcholine receptor M4 (Homo sapiens) taken from the literature.
pKi: −log10 of the molar value.
Measurement kind: pKi

See these solved cases before continuing.
Compound	pKi
O=C(CCN1CCCc2ccccc21)N1CCCC(O)C1 (stereo unspecified)	4.73
O=C(CCN1CCCc2ccccc21)NCc1cccc(F)c1	5.19
CC1(C)C(/C=C/C=C/C=C2/N(CCCCCC(=O)NCCN3CCN(CCCCC4CCN(CC(=O)N5c6ccccc6NC(=O)c6ccccc65)CC4)CC3)c3ccccc3C2(C)C)=[N+](CCCCS(=O)(=O)[O-])c2ccccc21	8.40

[P] CN(CCc1ccccc1)[C@H]1C2C3CC4C2C(=O)C2C4C3C21 (stereo partly specified)
[Q] CC(C)(C)OC(=O)N1CCN(CC(=O)n2c3ccccc3c3ccccc32)CC1
Sorting ascending by pKi, which comes first: P or Q ? Output the label that corresponds to your choice.
Q
(Q: 4.59, P: 5.45)

###

# Target desc: UniProt:P08173
# Sequence (P08173 whole entry): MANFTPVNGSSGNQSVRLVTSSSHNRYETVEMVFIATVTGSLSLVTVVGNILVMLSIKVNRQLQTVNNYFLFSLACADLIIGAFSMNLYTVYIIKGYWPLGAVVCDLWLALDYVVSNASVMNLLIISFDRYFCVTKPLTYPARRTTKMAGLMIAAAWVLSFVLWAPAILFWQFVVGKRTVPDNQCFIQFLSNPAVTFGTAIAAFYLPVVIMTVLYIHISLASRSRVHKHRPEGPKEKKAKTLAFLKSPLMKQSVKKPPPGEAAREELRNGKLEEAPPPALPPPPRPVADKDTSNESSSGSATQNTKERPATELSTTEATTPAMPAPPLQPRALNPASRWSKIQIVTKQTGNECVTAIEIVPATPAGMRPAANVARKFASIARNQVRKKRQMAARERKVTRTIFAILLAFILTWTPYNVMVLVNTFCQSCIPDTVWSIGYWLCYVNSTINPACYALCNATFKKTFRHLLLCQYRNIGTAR
pKi: −log10 of the molar value.
Kindly find below pKi information for UniProt:P08173 taken from the literature.
Measurement kind: pKi

See these solved cases before continuing.
Molecule	pKi
CC(=O)N[C@@H](Cc1c[nH]c2ccccc12)C(=O)N[C@@H](C)C(=O)N[C@@H](Cc1ccc(O)cc1)C(=O)NCCCCC1CCN(CC(=O)N2c3ccccc3NC(=O)c3ccccc32)CC1	7.40
CCCCSC1CCc2ccc(/N=C/N3CCc4cc(OC)c(OC)cc4C3)cc21 (configuration not stated)	5.35
CN(C)CCC1=C(Cc2cccnc2)c2ccccc2C1	5.13

[P] O=C(CN1CCCc2ccccc21)N1CCCC1
[Q] Cc1cc(/C=C/C=C/c2ccc(N(C)C)cc2)cc(C)[n+]1CCCCC1CCN(CC(=O)N2c3ccccc3NC(=O)c3ccccc32)CC1
[R] COc1nsnc1OCCCOCCCOCCCOc1nsnc1C1=CCCN(C)C1
[S] CN1/C(=C/C=C/C=C/C2=[N+](CCCCCC(=O)NCCCNCCCCCCN3CCC(COC(=O)Nc4ccc(F)cc4-c4ccc(F)c(Cl)c4)CC3)c3ccccc3C2(C)C)C(C)(C)c2ccccc21
List from greatest to least pKi. Output spec: labels arranged per the requested ranking.
S, Q, R, P
(S: 8.77, Q: 7.79, R: 6.80, P: 5.86)

[1] COc1ccccc1CN1CCC(C2CCN(CCCCCCCCN3CCC(C4CCN(Cc5ccccc5OC)CC4)CC3)CC2)CC1
[2] NCCN1CCN(CCC(=O)NC2CCN(CC(=O)N3c4ccccc4NC(=O)c4ccccc43)CC2)CC1
[3] O=C(O)C1CCCN1C(=O)CCN1CCCc2ccccc21 (configuration not stated)
[4] NCCN1CCN(C(=O)CCCC2CCN(CC(=O)N3c4ccccc4NC(=O)c4ccccc43)CC2)CC1
List from greatest to least pKi. Output spec: labels arranged per the requested ranking.
1, 2, 3, 4
(1: 7.82, 2: 6.44, 3: 6.05, 4: 5.82)

[a] CN1CCC[C@H]1[C@H]1C[S+]([O-])[C@](c2ccccc2)(C2CCCCC2)O1 (stereo in doubt; (-)-9)
[b] C[N+](C)(CCCC(O)(c1ccccc1)c1ccccc1)CC[N+](C)(C)CCCC(O)(c1ccccc1)c1ccccc1
# argmax over pKi for candidates a and b Output the label that corresponds to your choice.
a
